ASSAY_TARGET: Ribonuclease H1 (Homo sapiens) (UniProt O60930)
Sequence (O60930 whole entry, looked up): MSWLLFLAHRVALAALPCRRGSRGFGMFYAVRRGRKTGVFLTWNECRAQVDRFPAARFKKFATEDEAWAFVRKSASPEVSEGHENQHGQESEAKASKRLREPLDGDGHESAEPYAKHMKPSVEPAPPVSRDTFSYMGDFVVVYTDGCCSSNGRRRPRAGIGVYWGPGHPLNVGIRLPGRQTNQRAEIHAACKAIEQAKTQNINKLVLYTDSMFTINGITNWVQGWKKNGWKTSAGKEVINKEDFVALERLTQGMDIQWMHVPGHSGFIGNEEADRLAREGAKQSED
ASSAY_TEXT: inhibition of human ribonuclease H1 activity – biochemical, FRET RNA/DNA duplex cleavage, dose response (AID 366);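 further: potency is for inhibitors that lower RNA cleavage and so lower fluorescence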
CONDITION_SET: human RNase H1, FRET RNA/DNA duplex cleavage, fluorescence
Activity calls are given as the source filed them. How the calls were made is not given here.
In this exercise, the only acceptable responses are active, inactive

// below: answered molecules
O=C1NN(c2ccc(I)cc2)C(=O)/C1=C\c1ccc(O)c(O)c1    active
N#Cc1c(N)nc(SCC(=O)c2ccc(O)c(O)c2)c(C#N)c1-c1ccc(O)cc1    active
Cc1cc(O)c2c(c1O)C(=O)C13C(=C2O)C(=O)C2C(O)C1C1C(O)C3C(=O)C3=C(O)c4c(O)cc(C)c(O)c4C(=O)C321 (stereo not drawn)    active
O=c1c(O)c(-c2ccc(O)c(O)c2)oc2cc(O)cc(O)c12    active
Cc1cc(-c2ccc(C=C3C(=O)NC(=S)NC3=O)o2)c([N+](=O)[O-])cc1C    active

Input: Returns: the outcome recorded for "COc1cccc2cc(C(N)=O)c(=O)oc12" in this assay.
Output: inactive

Input: Returns: the outcome recorded for "COc1cc(C)cc2c(-c3c(O)cc(O)c4c3C[C@@H](C)N[C@@H]4C)cc(-c3cc(-c4c(O)cc(O)c5c4C[C@@H](C)N[C@@H]5C)c4cc(C)cc(OC)c4c3O)c(O)c12" in this assay.
Output: active

Input: Returns: the outcome recorded for "Cc1ccc(NC(=O)c2c(NC(=O)C(F)(F)F)sc(-c3ccccc3)c2C)c(C)c1" in this assay.
Output: active
